test system: C. albicans; type: cell-based, Candida albicans; conditions: 24 h
Numbered stars: 1 amine (or outer) side, 2 acyl side, 3 side chain; on linkers, the order of the positions; unused ones are H or OH. Square brackets hold non-standard residues; d marks the D form. Peptide text beside a SMILES is read from it. N(1S-cyclohexylethyl)Gly = C[C@H](NCC(=O)O)C1CCCCC1; N(tridecyl)Gly = CCCCCCCCCCCCCNCC(=O)O; N(4-F-Bzl)Gly = O=C(O)CNCc1ccc(F)cc1; X1 = CC(c1ccccc1)N(CC(=O)[*:2])[*:1]; Gly(N-2-aminoethyl) = NCCNCC(=O)O; NFurfurylGly = O=C(O)CNCc1ccco1; Gly(N(CH2)3NH2) = NCCCNCC(=O)O; Gly(N-cHex) = O=C(O)CNC1CCCCC1; Nphe = O=C(O)CNCc1ccccc1; NPrGly = CCCNCC(=O)O; Nlys = NCCCCNCC(=O)O; Sar = CNCC(=O)O
Listing: MIC C. albicans of selected compounds
Report the figure in µg/mL without appending any unit label.

| COMPOUND | MIC C. albicans (µg/mL) |
| --- | --- |
| CCCCCCCCCCCCCNCC(=O)N(CCC)CC(=O)N(CC(=O)N(CCCCN)CC(=O)N(CC(=O)N(CC(=O)N(CCCN)CC(N)=O)Cc1ccccc1)Cc1ccco1)C1CCCCC1 [Compound 911-M9] (H-[N(tridecyl)Gly][NPrGly][Gly(N-cHex)][Nlys][NFurfurylGly][Nphe][Gly(N(CH2)3NH2)]-NH2) | 12.5 |

Query: MIC C. albicans; subject: CCCCCCCCCCCCCNCC(=O)N(CCN)CC(=O)N(CC(=O)N(CCCCN)CC(=O)N(CC(=O)N(CC(=O)N(CCCN)CC(N)=O)Cc1ccccc1)Cc1ccco1)[C@@H](C)C1CCCCC1 [Compound 911-M13] (H-[N(tridecyl)Gly][Gly(N-2-aminoethyl)][N(1S-cyclohexylethyl)Gly][Nlys][NFurfurylGly][Nphe][Gly(N(CH2)3NH2)]-NH2)
6.25

Query: MIC C. albicans; subject: CCCCCCCCCCCCCNCC(=O)N(CCC)CC(=O)N(CC(=O)N(C)CC(=O)N(CC(=O)N(CC(=O)N(CCCN)CC(N)=O)Cc1ccccc1)Cc1ccco1)C(C)c1ccccc1 (stereo not shown) [SAR 4] (H-[N(tridecyl)Gly][NPrGly][X1][Sar][NFurfurylGly][Nphe][Gly(N(CH2)3NH2)]-NH2)
6.25

Query: MIC C. albicans; subject: CCCCCCCCCCCCCNCC(=O)N(CCC)CC(=O)N(CC(=O)N(CCCCN)CC(=O)N(CC(=O)N(CC(=O)N(CCCN)CC(N)=O)Cc1ccccc1)Cc1ccco1)Cc1ccc(F)cc1 [Compound 911-M4] (H-[N(tridecyl)Gly][NPrGly][N(4-F-Bzl)Gly][Nlys][NFurfurylGly][Nphe][Gly(N(CH2)3NH2)]-NH2)
6.25

Query: MIC C. albicans; subject: CCCCCCCCCCCCCNCC(=O)N(C)CC(=O)N(CC(=O)N(CCCCN)CC(=O)N(CC(=O)N(CC(=O)N(CCCN)CC(N)=O)Cc1ccccc1)Cc1ccco1)C(C)c1ccccc1 (stereo not shown) [SAR 2] (H-[N(tridecyl)Gly][Sar][X1][Nlys][NFurfurylGly][Nphe][Gly(N(CH2)3NH2)]-NH2)
12.5
